Target: Gag-Pol polyprotein [588-1027]/[588-1147] (Human immunodeficiency virus 1, UniProt P04585)
Construct: 588-1027; 588-1147
Assay: HIV-1 RT Assay
endpoint: IC50

N#Cc1ccc([S+]([O-])c2cccc(N)c2C#N)cc1 (stereo not given) ... > 23 µM
N#Cc1cccc([S+]([O-])c2cccc(N)c2C#N)c1 (stereo not given) ... > 15 µM
N#Cc1c(N)cccc1[S+]([O-])c1ccc(Br)cc1 (stereo not given) ... > 21 µM
Cc1ccccc1[S+]([O-])c1cccc(N)c1C#N (stereo not given) ... > 21 µM
N#Cc1c(N)cccc1[S+]([O-])c1cccc(C(F)(F)F)c1 (stereo not given) ... > 22 µM
Cc1ccc([S+]([O-])c2cccc(N)c2C#N)cc1 (stereo not given) ... > 21 µM

State the recorded IC50 for this entry: COc1ccc([S+]([O-])c2cccc(N)c2C#N)cc1 (stereo not given) > 20 µM

State the recorded IC50 for this entry: N#Cc1c(N)cccc1[S+]([O-])c1ccccc1Br (stereo not given) > 19 µM

State the recorded IC50 for this entry: `N#Cc1ccc(S(=O)(=O)c2cccc(N)c2C#N)cc1` > 18 µM

State the recorded IC50 for this entry: `N#Cc1c(N)cccc1S(=O)(=O)c1ccc(Br)cc1` > 14 µM
